# Experimental Details: Stability of DA-7010 in mouse plasma under various storage conditions
# Type: in vitro ADME
# Run Conditions: short term (room temperature 8 h), nominal 8000 ng/mL, n = 3, mean ± SD

Compound | recovery at 8 h, 8000 ng/mL
C[C@@H]1COB2O[C@H](CN)c3cccc(c32)O1 [DA-7010] | 89%

---

# Experimental Details: Stability of DA-7010 in dog plasma under various storage conditions
# Format: in vitro ADME
# Run Conditions: long term (‒20 °C over 1 month), nominal 30 ng/mL, n = 3, mean ± SD
# Experimental: The stability of DA-7010 in the plasma from the mice, rats, and dogs was evaluated by analyzing 3 replicates of low, medium, and high QC samples under various storage conditions: the bench-top short-term stability (at room temperature for 8 h), post-preparative stability (prepared samples kept in LC vials at 4 °C for 24 h), freeze–thaw stability (3 freeze/thaw (−20 °C/room temperature) cycles), and long-term freezing stability (−20 °C for 1 month). […]

Compound | recovery at 1 month, 30 ng/mL (%)
C[C@@H]1COB2O[C@H](CN)c3cccc(c32)O1 [DA-7010] | 113
